Test system: compound-treated mice
assay_notes: Neuropharmacological assay (SmartCube): behavioral activity signature and minimal effective dose
Format: in vivo
experimental_conditions: i.p. 15 min before test, most efficacious dose(s)
measured_metric: AG: analgesic (probability of activity signature)

Take a look at these entries with their results.
[[record]]
compound = "Cl.NC1COCCc2ccccc21 (stereo not shown)"
result_value = "++ (5% ≤ ++ <25%)"

[[record]]
compound = "Cc1ccc2c(c1)CO[C@@H](C)[C@H]2N.Cl"
result_value = "++ (5% ≤ ++ <25%)"

[[record]]
compound = "Cl.NC1COCc2ccc3c(c21)C1CCC3C1 (single isomer, unassigned) [Example 164]"
result_value = "++ (5% ≤ ++ <25%)"

[[record]]
compound = "CC[C@@H]1OCc2ccc(C)cc2[C@@H]1N (single isomer, unassigned)"
result_value = "+ (LOQ ≤ + <5%)"

[[record]]
compound = "C[C@@H]1OCc2ccc3c(c2[C@@H]1N)CCCO3.Cl"
result_value = "++ (5% ≤ ++ <25%)"


Task: # input compound: C[C@@H]1OCc2ccc(F)cc2[C@H]1N ; wanted: its AG: analgesic (probability of activity signature)
Result: + (LOQ ≤ + <5%)

Task: Another compound to check: CCN(C)C(=O)Oc1ccc2c(c1)[C@H](N(C)C)[C@@H](C)OC2.Cl
Result: + (LOQ ≤ + <5%)

Task: Another compound to check: Cc1cccc2c1[C@H](N)[C@H](C)OC2.Cl
Result: ++ (5% ≤ ++ <25%)

Task: Another compound to check: CCc1cccc2c1C(N)COC2.Cl (stereo not shown) [Example 53, 5-Ethylisochroman-4-amine hydrochloride]
Result: ++ (5% ≤ ++ <25%)

Task: Another compound to check: CC[C@@H]1OCc2ccc(F)cc2[C@@H]1N
Result: ++ (5% ≤ ++ <25%)

Task: Another compound to check: C[C@@H]1OCc2ccc(C(F)(F)F)cc2[C@@H]1N.Cl
Result: ++ (5% ≤ ++ <25%)

Task: Another compound to check: N[C@@H]1COCc2ccc(F)cc21 (single isomer, unassigned)
Result: ++ (5% ≤ ++ <25%)

Task: Another compound to check: CN[C@@H]1COCc2cccc(C)c21 (single isomer, unassigned)
Result: ++ (5% ≤ ++ <25%)

Task: Another compound to check: COc1ccc2c(c1)CO[C@@H](C)[C@H]2N.Cl
Result: ++ (5% ≤ ++ <25%)

Task: Another compound to check: Cc1cc2c(cc1C)[C@H](N)[C@H](C)OC2.Cl
Result: + (LOQ ≤ + <5%)

Task: Another compound to check: Cc1ccc2c(c1)[C@@H](N)[C@@H](C)OC2 (single isomer, unassigned)
Result: ++ (5% ≤ ++ <25%)

Task: Another compound to check: Cc1cccc2c1COC[C@H]2N (single isomer, unassigned)
Result: ++ (5% ≤ ++ <25%)

Task: Another compound to check: Cc1cccc2c1[C@H](N)COC2 (single isomer, unassigned)
Result: ++ (5% ≤ ++ <25%)
